tested on: Candida albicans; conditions: 20 µM
Description: Antifungal activity against Candida albicans ATCC 90028 (CO-ADD:FG_001); MIC in YNB media using NBS plates, by OD630
Entries with a potency or affinity are not part of this list.
measurementName: Inhibition (%)
Numbers only here, please. The scale is %.

Task: Please look up its Inhibition: COc1cc(C2=NCCN2)ccc1-n1cc(-c2cccc(C3=NCCN3)c2)nn1.O=CO.O=CO
Result: 2.32

Task: Another compound to look at: CC(Oc1ccccc1)C(=O)Nc1nc(-c2ccccn2)cs1 (stereo not drawn)
Result: -0.26

Task: Another compound to look at: CS(=O)(=O)Cc1nc2ccccc2oc1=O
Result: 1.55

Task: Another compound to look at: Nc1ncc(Br)cc1-c1nc2cc(Cl)cnc2[nH]1
Result: 9.81

Task: Another compound to look at: CCOc1ccc(OCC(=O)Nc2cc(C)cc(C)c2)cc1
Result: 9.23

Task: Another compound to look at: Cc1ncc(-c2ccnc(Nc3ccc(S(C)(=O)=O)cc3)n2)n1C(C)C
Result: 6.64

Task: Another compound to look at: COc1cc(CN2CCC3(C=Cc4ccccc43)CC2)cc2c1OCO2
Result: -0.19

Task: Another compound to look at: O=C(NCc1nnc2n1CCCCC2)c1ccc(-c2ccc(F)cc2)o1
Result: 3.81

Task: Another compound to look at: CC(C)n1nc(-c2cc3c(Cl)cccc3[nH]2)c2c(N)ncnc21
Result: 5.11

Task: Another compound to look at: Cc1cc(C)c2cc(C(=O)NC3CCCCCCC3)[nH]c2c1
Result: 3.94

Task: Another compound to look at: CS(=O)(=O)c1cccc(-c2cnc3[nH]cc(-c4ccc(CCC(=O)O)cc4)c3c2)c1
Result: 11.3

Task: Another compound to look at: Cc1nn(C)cc1C(C)Nc1nncc(-c2ccc(C(F)(F)F)cc2)n1 (stereo not drawn)
Result: 3.9

Task: Another compound to look at: CS(=O)(=O)N1CCC(Cn2nc(Cc3cccc4ccccc34)c3c(N)ncnc32)CC1
Result: 2.39

Task: Another compound to look at: C[C@H](C(N)=O)N1CCCC[C@@H]1c1ccc(OCc2cccc(F)c2)cc1
Result: 2.97

Task: Another compound to look at: Clc1ccc(-n2cc(COc3ccnc4ccccc34)nn2)cc1
Result: 3.14

Task: Another compound to look at: Cc1cc(C)nc(-n2nc(C)cc2Nc2ccccc2)n1
Result: 11.7

Task: Another compound to look at: CCCn1c(CNc2ccccc2O)nc2ccccc21
Result: -0.42

Task: Another compound to look at: Nc1ncc(-c2cn[nH]c2)cc1-c1nc2cc(Cl)cnc2[nH]1
Result: 4.36

Task: Another compound to look at: Nc1nc(N)c2c3c(sc2n1)CN(Cc1ccccc1)CC3
Result: 2.79

Task: Another compound to look at: COc1cccc2c(C)nc(N=C(N)N)nc12.O=C(O)C(F)(F)F.O=C(O)C(F)(F)F
Result: 2.56

Task: Another compound to look at: COC(=O)c1c(NC(=O)c2cc3ccccc3oc2=O)sc2c1CCN(Cc1ccccc1)C2
Result: 2.23

Task: Another compound to look at: Nc1ncc(-c2ccc(C(F)(F)F)nc2)cc1-c1ccc(C(F)(F)F)nc1
Result: 5.26

Task: Another compound to look at: CCN(CC)S(=O)(=O)c1ccc(Cl)c(C(=O)Nc2ccc3nc(C)sc3c2)c1
Result: 3.67

Task: Another compound to look at: CC(=O)Nc1ccc(-c2noc(CC3CCCN(Cc4cccc(F)c4C)C3)n2)cc1 (stereo not drawn)
Result: 3.14

Task: Another compound to look at: CC(C)(CN)c1nc(-c2ccc(Cl)c(O)c2)c(-c2ccnc(N)n2)[nH]1.O=C(O)C(F)(F)F.O=C(O)C(F)(F)F
Result: 2.09

Task: Another compound to look at: COC(=O)c1c(NC(=O)c2c(F)c(F)c(F)c(F)c2F)sc2c1CCCCC2
Result: 6.8

Task: Another compound to look at: Cc1cc(NC(=O)c2ccc(S(=O)(=O)N(Cc3ccccc3)C(C)C)cc2)no1
Result: 1.89

Task: Another compound to look at: COc1ccc2nc(C)cc(OCC(=O)NCc3ccccc3)c2c1
Result: 2.81

Task: Another compound to look at: COc1ccc(-c2cncc3ccc(C(=O)NCCCn4ccnc4)nc23)cc1
Result: 4.61

Task: Another compound to look at: COc1ccc2nc(C)cc(OCC(=O)Nc3ccccc3OC)c2c1
Result: 0.63

Task: Another compound to look at: CCOc1ccc2cc(-c3nn(C(C)(C)C)c(N)c3C(N)=O)cnc2c1.Cl
Result: 2.56

Task: Another compound to look at: c1ccc(Oc2ccc(-c3cc(C4CCOCC4)[nH]n3)cc2)cc1
Result: 7.75

Task: Another compound to look at: FC(F)(F)c1nnc2ccc(Cl)nn12
Result: 2.55

Task: Another compound to look at: Cc1cc(C)n2nc(C(=O)Nc3cc(C(F)(F)F)ccc3N3CCOCC3)nc2n1
Result: 5.28

Task: Another compound to look at: COc1ccc(CCN2CCC(NCc3cccc(N(C)C)c3)CC2)cc1
Result: 3.48

Task: Another compound to look at: Cc1cc(Cl)c(S(=O)(=O)N2CCCC2)cc1OCC(=O)NC1CCCCC1
Result: 9.11

Task: Another compound to look at: CCc1ccc(S(=O)(=O)Nc2cc(CN3CCN(CCC(C)C)CC3)ccc2C)cc1
Result: 4.16

Task: Another compound to look at: CCCc1ccc(S(=O)(=O)Nc2ccc(CN3CCN(CC4CC4)CC3)cc2)cc1
Result: 4.6

Task: Another compound to look at: O=C(NC1CC1)c1ccc(N2CCOc3ccc(Cl)cc32)s1
Result: 6.64

Task: Another compound to look at: CCN(CC)CCCCCCNc1cc(OC)cc2c(C)ccnc12.Cc1ccc(S(=O)(=O)O)cc1
Result: 2.19

Task: Another compound to look at: NCC(=O)N1CCn2c(nc(-c3ccccc3)c2Nc2ccc3c(c2)OCO3)C1
Result: 3.31

Task: Another compound to look at: Cc1cccc(-c2nc(Nc3ccncn3)c3sccc3n2)n1
Result: 3.59

Task: Another compound to look at: c1cc(C2=NCCN2)cc(-c2cc(-c3ccc(C4=NCCN4)cc3)no2)c1
Result: 2.32

###

tested on: Klebsiella pneumoniae; settings: Concentration 20 uM; ASSAY_TEST Inhibition of Bacterial Growth; detection method Absorption (OD600); MEDIA CAMHB; plate type 384well; NBS; CORNING #3640; time 18 hr
Description: Antibacterial activity against Klebsiella pneumoniae MDR ATCC 70063 (CO-ADD:GN_003); MIC in CAMBH media using NBS plates, by OD(600)
Entries with a potency or affinity are not part of this list.
We label by threshold. Values of Inhibition strictly beneath 10% are Fulfilled. Values of 10% and up are Not fulfilled.

Task: Identify whether the compound O=C(Nc1nc(-c2ccccn2)cs1)c1cncn1-c1ccccc1 records Inhibition below 10%.
Result: Not fulfilled

Task: Another compound to look at: CCOc1ccc(-c2nc(CNCCc3ccc(F)cc3)cs2)cc1
Result: Not fulfilled

Task: Another compound to look at: CS(=O)(=O)N1CCC(CCn2nc(Cc3cccc4ccccc34)c3c(N)ncnc32)CC1
Result: Fulfilled

Task: Another compound to look at: O=C(Nc1ccnc(-c2cccnc2)n1)c1cc(C(F)(F)F)cc(C(F)(F)F)c1
Result: Not fulfilled

Task: Another compound to look at: Cc1cc(C(=O)Nc2cnn(Cc3ccc(Cl)cc3Cl)c2)no1
Result: Fulfilled

Task: Another compound to look at: Cc1cc(C)n(-c2ccc(NC(=O)C3CCN(Cc4cnc(C)s4)CC3)cc2)n1
Result: Fulfilled

Task: Another compound to look at: N#CCN(CCCCN1CCN(c2ccc(F)cc2)CC1)C(=O)OCc1ccccc1
Result: Not fulfilled

Task: Another compound to look at: COC(=O)c1c(NC(=O)c2c(F)c(F)c(F)c(F)c2F)sc2c1CCCCC2
Result: Not fulfilled

Task: Another compound to look at: Cc1nnc(NCc2cccc(Cl)c2)c2ccccc12
Result: Not fulfilled

Task: Another compound to look at: Cc1cnc(N2CCN[C@@H](Cc3ccccc3)C2)nc1Oc1ccc(-n2ccnc2)cc1.Cl
Result: Fulfilled

###

test system: Candida albicans; conditions: 20 µM
Entries with a potency or affinity are not part of this list.
We label by threshold. Values of Inhibition strictly beneath 4% are Condition met. Values of 4% and up are Condition not met.

Task: Identify whether the compound C[C@H](C(N)=O)N1CCCC[C@H]1c1ccc(OCc2cccc(F)c2)cc1 records Inhibition below 4%.
Result: Condition met

Task: Another compound to look at: Cl.NCC(c1cccs1)S(=O)(=O)c1ccccc1 (centres undefined)
Result: Condition met

Task: Another compound to look at: CCS(=O)(=O)N(Cc1ccco1)Cc1cc2ccc(C)cc2nc1O
Result: Condition met

Task: Another compound to look at: O=C(Nc1cccc(-c2ccc(NCCCN3CCCC3)nc2)c1)c1ccccc1
Result: Condition met

Task: Another compound to look at: Cc1cc(O)nc(-n2nc(C)cc2C)n1
Result: Condition not met

Task: Another compound to look at: COc1ccc(Cn2cnc3c(-c4ccco4)nc(Cl)nc32)cc1
Result: Condition not met

Task: Another compound to look at: Cc1nc(-c2ccccn2)nc(NCCc2ccc(S(C)(=O)=O)cc2)c1Cl
Result: Condition not met

Task: Another compound to look at: COc1cc(OC)cc(C(=O)NCC2Cc3cc(Cl)cc(-c4ccncc4)c3O2)c1 (centres undefined)
Result: Condition not met

Task: Another compound to look at: Cc1ccc(C(=O)Nc2ccc(S(=O)(=O)O)c3cc(S(=O)(=O)O)cc(S(=O)(=O)O)c23)cc1NC(=O)c1cccc(NC(=O)Nc2cccc(C(=O)Nc3cc(C(=O)Nc4ccc(S(=O)(=O)O)c5cc(S(=O)(=O)O)cc(S(=O)(=O)O)c45)ccc3C)c2)c1 [SURAMIN]
Result: Condition not met
